Molecular target: CCR9 (Homo sapiens)
Construct: expressed in transfected cells
Sequence (P51686 1-369): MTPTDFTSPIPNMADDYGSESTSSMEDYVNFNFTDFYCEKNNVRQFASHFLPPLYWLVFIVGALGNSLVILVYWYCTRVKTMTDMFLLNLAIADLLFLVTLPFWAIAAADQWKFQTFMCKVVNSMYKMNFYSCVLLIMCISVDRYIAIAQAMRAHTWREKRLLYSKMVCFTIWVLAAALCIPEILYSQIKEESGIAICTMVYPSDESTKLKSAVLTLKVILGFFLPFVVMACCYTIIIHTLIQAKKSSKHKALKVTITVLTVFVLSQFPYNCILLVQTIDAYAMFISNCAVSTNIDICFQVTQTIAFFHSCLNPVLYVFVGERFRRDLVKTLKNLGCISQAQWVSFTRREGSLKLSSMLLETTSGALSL
Experiment: Figure S2a opioid peptide screen on chemokine receptors
Assay type: cell-based
Design: dose or concentration left out as unconfirmed
Conditions: replicate 2, read-out: CCR9 activity, ctrl+ = 100
ENDPOINT NAME: activation (%)

[[record]]
compound = "CC[C@H](C)[C@H](NC(=O)[C@H](CCCNC(=N)N)NC(=O)[C@H](CCCNC(=N)N)NC(=O)[C@H](CC(C)C)NC(=O)[C@H](Cc1ccccc1)NC(=O)CNC(=O)CN)C(=O)N[C@@H](CCCNC(=N)N)C(=O)N1CCC[C@H]1C(=O)N[C@@H](CCCCN)C(=O)N[C@@H](CC(C)C)C(=O)N[C@@H](CCCCN)C(=O)N[C@@H](Cc1c[nH]c2ccccc12)C(=O)N[C@@H](CC(=O)O)C(=O)N[C@@H](CC(N)=O)C(=O)N[C@@H](CCC(N)=O)C(=O)O [Dynorphin 2-17]"
measurement = 0.179

[[record]]
compound = "C[C@H](NC(=O)CNC(=O)[C@@H](NC(=O)[C@H](Cc1ccccc1)NC(=O)CNC(=O)CNC(=O)[C@@H](N)Cc1ccccc1)[C@@H](C)O)C(=O)N[C@@H](CCCNC(=N)N)C(=O)N[C@@H](CCCCN)C(=O)N[C@@H](CO)C(=O)N[C@@H](C)C(=O)N[C@@H](CCCNC(=N)N)C(=O)N[C@@H](CCCCN)C(N)=O [Nociceptin 1-13]"
measurement = -1.89

[[record]]
compound = "CSCC[C@H](NC(=O)[C@H](Cc1ccccc1)NC(=O)CNC(=O)CNC(=O)[C@@H](N)Cc1ccc(O)cc1)C(=O)N[C@@H](CCCNC(=N)N)C(=O)N[C@@H](CCCNC(=N)N)C(=O)N[C@H](C(N)=O)C(C)C [Adrenorphin]"
measurement = -0.997


---

Molecular target: CXCR5 (Homo sapiens, UniProt P32302)
Construct: expressed in transfected cells
Sequence (P32302 whole entry): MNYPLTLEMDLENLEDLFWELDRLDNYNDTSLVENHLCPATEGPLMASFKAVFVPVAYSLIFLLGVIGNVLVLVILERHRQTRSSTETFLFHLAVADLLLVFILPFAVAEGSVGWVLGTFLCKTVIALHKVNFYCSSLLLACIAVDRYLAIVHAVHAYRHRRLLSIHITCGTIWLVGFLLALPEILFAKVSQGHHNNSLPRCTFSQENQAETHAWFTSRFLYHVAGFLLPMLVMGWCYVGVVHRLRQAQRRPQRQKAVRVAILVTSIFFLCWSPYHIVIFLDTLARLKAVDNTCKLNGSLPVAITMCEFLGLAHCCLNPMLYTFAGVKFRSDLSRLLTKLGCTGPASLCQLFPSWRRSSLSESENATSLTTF
Assay: Figure S2a opioid peptide screen on chemokine receptors
Format: cell-based
Design: dose or concentration left out as unconfirmed
Conditions: replicate 1, read-out: CXCR5 activity, ctrl+ = 100
Entries and their measured activation follow.
ENDPOINT NAME: activation (%)

[[record]]
compound = "C[C@H](NC(=O)CNC(=O)[C@@H](NC(=O)[C@H](Cc1ccccc1)NC(=O)CNC(=O)CNC(=O)[C@@H](N)Cc1ccccc1)[C@@H](C)O)C(=O)N[C@@H](CCCNC(=N)N)C(=O)N[C@@H](CCCCN)C(=O)N[C@@H](CO)C(=O)N[C@@H](C)C(=O)N[C@@H](CCCNC(=N)N)C(=O)N[C@@H](CCCCN)C(N)=O"
endpoint_name = "activation"
unit_abbreviation = "%"
measurement = -3.96

[[record]]
compound = "NC(=O)[C@H](Cc1ccccc1)NC(=O)[C@H](Cc1c[nH]c2ccccc12)NC(=O)[C@@H]1CCCN1C(=O)[C@@H](N)Cc1ccc(O)cc1 [Endomorphin-1]"
endpoint_name = "activation"
unit_abbreviation = "%"
measurement = 1.35

[[record]]
compound = "CSCC[C@H](NC(=O)[C@H](Cc1ccccc1)NC(=O)CNC(=O)CNC(=O)[C@@H](N)Cc1ccc(O)cc1)C(=O)N[C@@H](CCCNC(=N)N)C(=O)N[C@@H](CCCNC(=N)N)C(=O)N[C@H](C(N)=O)C(C)C"
endpoint_name = "activation"
unit_abbreviation = "%"
measurement = -2.55

[[record]]
compound = "CC[C@H](C)[C@H](NC(=O)[C@H](CCCNC(=N)N)NC(=O)[C@H](CCCNC(=N)N)NC(=O)[C@H](CC(C)C)NC(=O)[C@H](Cc1ccccc1)NC(=O)CNC(=O)CN)C(=O)N[C@@H](CCCNC(=N)N)C(=O)N1CCC[C@H]1C(=O)N[C@@H](CCCCN)C(=O)N[C@@H](CC(C)C)C(=O)N[C@@H](CCCCN)C(=O)N[C@@H](Cc1c[nH]c2ccccc12)C(=O)N[C@@H](CC(=O)O)C(=O)N[C@@H](CC(N)=O)C(=O)N[C@@H](CCC(N)=O)C(=O)O"
endpoint_name = "activation"
unit_abbreviation = "%"
measurement = -2.49

[[record]]
compound = "CC(C)C[C@H](NC(=O)[C@H](CCCCN)NC(=O)[C@H](CCCN=C(N)N)NC(=O)[C@H](C)NC(=O)[C@H](CO)NC(=O)[C@H](CCCCN)NC(=O)[C@H](CCCN=C(N)N)NC(=O)[C@H](C)NC(=O)CNC(=O)[C@@H](NC(=O)[C@H](Cc1ccccc1)NC(=O)CNC(=O)CNC(=O)[C@@H](N)Cc1ccccc1)[C@@H](C)O)C(=O)N[C@@H](C)C(=O)N[C@@H](CC(N)=O)C(=O)N[C@@H](CCC(N)=O)C(=O)O"
endpoint_name = "activation"
unit_abbreviation = "%"
measurement = -2.94

[[record]]
compound = "CC[C@H](C)[C@H](NC(=O)[C@H](CCCNC(=N)N)NC(=O)[C@H](CCCNC(=N)N)NC(=O)[C@H](CC(C)C)NC(=O)[C@H](Cc1ccccc1)NC(=O)CNC(=O)CNC(=O)[C@@H](N)Cc1ccc(O)cc1)C(=O)N[C@@H](CCCNC(=N)N)C(=O)N1CCC[C@H]1C(=O)N[C@@H](CCCCN)C(=O)N[C@@H](CC(C)C)C(=O)N[C@@H](CCCCN)C(=O)O"
endpoint_name = "activation"
unit_abbreviation = "%"
measurement = -0.575


Reference for the values: paper PMC7305236
